system: Enterococcus faecalis; test: Antibacterial activity against Enterococcus faecalis assessed as growth inhibition at 50 ug/disc after 24 hrs by disc diffusion method; format: functional; conditions: read-out: DIZ
The reader will find reported zone of inhibition at 50 µg/disc values listed item by item below.
Respond numerically; units are mm and should not be typed.

Would you please look over these solved cases?
1) CC1=C(C)[C@@H]2CC(=O)C3=C(C(=O)C(=O)[C@]4(C[C@@H]4C)[C@@H]3O)[C@@]2(C)CC1 :: 24
2) CC(C)c1cc2c(c(O)c1O)[C@@]1(C)CCCC(C)(C)C1=C(O)C2=O :: 10.5
3) NC[C@H]1O[C@H](O[C@H]2[C@H](O)[C@@H](O[C@H]3O[C@H](CO)[C@@H](O)[C@H](N)[C@H]3O)[C@H](N)C[C@@H]2N)[C@H](O)[C@@H](O)[C@@H]1O :: 17.9
4) CC(C)c1cc2c(c(O)c1O)[C@@]1(C)CCCC(C)(C)[C@@H]1CC2=O :: 11.3

Next up:
Request: Lookup: zone of inhibition at 50 µg/disc / Enterococcus faecalis / CC(C)c1cc2c(c(O)c1O)[C@@]1(C)CCCC(C)(C)[C@@H]1[C@@H](O)C2=O [6-ALPHA-HYDROXYDEMETHYL-CRYPTOJAPONOL]
Result: 13.8

Taken from ChEMBL document CHEMBL3425415.
